# PROTOCOL_TEXT: qHTS Assay for Modulators of miRNAs and/or Inhibitors of miR-21
# ASSAY_CONTEXT: HeLa miR-21-FLuc reporter, luciferase luminescence, 48 h; actives lower the signal
About 3,300 (0.97%) of roughly 340,000 compounds were called active. Roughly 9% stayed inconclusive and do not appear here. The list shows a part of the results.
TEST_READOUT: Potency

Known Potency results, listed for orientation:
- COMPOUND: "COc1ccc(-c2noc(-c3cccs3)n2)cc1OC"
  Potency: "826 nM (active)"
- COMPOUND: "CC1(C(=O)Nc2nc3ccccc3s2)CC1(Br)Br (stereo unspecified)"
  Potency: "8260 nM (active)"

Shifting focus to the compound that follows.
Name the recorded Potency of the compound listed here: CCOC(=O)c1cnc2c(-c3ccccc3)cnn2c1C
927 nM (active)

* * *

Reported Potency values follow for various compounds
# PROTOCOL_TEXT: qHTS Assay for Modulators of miRNAs and/or Inhibitors of miR-21; also: potency is read from the fitted curve at half-maximal effect; nearly all actives have a fitted effect of over 55% in size
# ASSAY_CONTEXT: HeLa miR-21-FLuc reporter, luciferase luminescence, 48 h; actives lower the signal
Out of some 340,000 compounds screened, about 3,300 (0.97%) were called active. Not shown: some 9% with an inconclusive outcome. This is one part of the list.

- SMILES_CODE: "Brc1ccc(-c2ncc3ccccn23)cc1"
  Potency: "7.36 µM (active)"
- SMILES_CODE: "CN(C)Cc1c(-c2ccc(Cl)cc2)nc2ccccn12"
  Potency: "6.56 µM (active)"
- SMILES_CODE: "CCn1c(=N)n(CC(=O)c2ccc(Cl)c(Cl)c2)c2ccccc21"
  Potency: "6.56 µM (active)"
- SMILES_CODE: "Cc1c(-c2ccc(Br)cc2)nc2ccccn12"
  Potency: "1.47 µM (active)"
- SMILES_CODE: "COc1ccc(C(=O)Cn2c(=N)n(C)c3ccccc32)cc1"
  Potency: "0.736 µM (active)"
- SMILES_CODE: "CCc1cccc2c(C(=O)COC(=O)c3ccccc3)c[nH]c12"
  Potency: "16.5 µM (active)"
- SMILES_CODE: "[O-]/[N+](=C\\C=C\\c1ccccc1)c1ccccc1"
  Potency: "1.85 µM (active)"
- SMILES_CODE: "COCC(=O)Nc1ccc(OCc2ccccc2)cc1"
  Potency: "11.7 µM (active)"
- SMILES_CODE: "CCCOc1ccccc1/C=C(\\C#N)C(=O)Nc1cccnc1"
  Potency: "8.26 µM (active)"
- SMILES_CODE: "COC(=O)c1ccc(COc2ccccc2/C=C(\\C#N)C(=O)Nc2ccc(C)cc2)cc1"
  Potency: "7.36 µM (active)"

Identify measured Potency corresponding to O=[N+]([O-])c1ccc2nc(SCc3cn4ccccc4n3)[nH]c2c1
18.5 µM (active)

State its Potency for this compound: Clc1c(-c2ccccc2)nc2ccccn12
5.21 µM (active)

* * *

Reported Potency values for a set of compounds
# PROTOCOL_TEXT: qHTS Assay for Modulators of miRNAs and/or Inhibitors of miR-21; also: potency is read from the fitted curve at half-maximal effect; nearly all actives have a fitted effect of over 55% in size
# ASSAY_CONTEXT: HeLa miR-21-FLuc reporter, luciferase luminescence, 48 h; actives lower the signal
The whole screen tested about 340,000 compounds, of which about 3,300 (0.97%) were called active. Another 9% or so got no clear call; they are omitted. Some of the results follow.

State its Potency for this compound: CNC(=O)/C(C#N)=C/c1ccc(-c2ccc(OC)cc2[N+](=O)[O-])o1
18.5 µM (active)

* * *

The following molecules are listed with their measured Potency values.
# PROTOCOL_TEXT: qHTS Assay for Modulators of miRNAs and/or Inhibitors of miR-21; also: potency is read from the fitted curve at half-maximal effect; nearly all actives have a fitted effect of over 55% in size
# ASSAY_CONTEXT: HeLa miR-21-FLuc reporter, luciferase luminescence, 48 h; actives lower the signal
The campaign covered roughly 340,000 compounds. About 3,300 (0.97%) were called active. Another 9% or so got no clear call; they are omitted. The list shows a part of the results.

Some solved cases for reference:
- MOLECULE: "COc1nc(C)ccc1-c1noc(-c2cccs2)n1"
  ASSAY_VALUE: "1.85 µM (active)"
- MOLECULE: "O=C(Nc1ccccc1O)c1cc2cc(Br)ccc2oc1=O"
  ASSAY_VALUE: "0.521 µM (active)"
- MOLECULE: "COc1ccccc1C(=O)N=c1sc2c(C)ccc(OC)c2n1C"
  ASSAY_VALUE: "3.69 µM (active)"

Given the molecule COc1nc(-c2ccccc2)ccc1-c1noc(C)n1 , write its reported Potency.
7.36 µM (active)

Please give the documented Potency of O=c1c(-c2ccc(O)cc2)coc2cc(OC3OC(CO)C(O)C(O)C3O)cc(O)c12 (stereo not given)
2.61 µM (active)

For the molecule Nc1cnc(Nc2ccc(Br)cc2)nc1N , give its reported Potency.
11.7 µM (active)

# return recorded Potency for entry COc1cc(Cl)ccc1OCc1cc(C(=O)N(C)CCc2cnn(C)c2)no1
5.85 µM (active)

// fetch Potency given entry COc1ccc(C(=O)N=c2sc3c(C)ccc(OC)c3n2C)cc1
0.185 µM (active)

Report Potency, nothing else, for this molecule: CCN(C(=O)c1cc2ccccc2oc1=O)c1ccccc1
6.56 µM (active)

Find the measured Potency of Cc1cc(O)c(-c2cc(C(=O)Nc3cccnc3)[nH]n2)cc1C and report it.
0.414 µM (active)

* * *

# PROTOCOL_TEXT: qHTS Assay for Modulators of miRNAs and/or Inhibitors of miR-21; also: potency is read from the fitted curve at half-maximal effect; nearly all actives have a fitted effect of over 55% in size
# ASSAY_CONTEXT: HeLa miR-21-FLuc reporter, luciferase luminescence, 48 h; actives lower the signal
The campaign covered roughly 340,000 compounds. About 3,300 (0.97%) were called active. Not shown: some 9% with an inconclusive outcome. This is one part of the list.
TEST_READOUT: Potency

- COMPOUND: "COc1cccc2c1C(=O)O/C2=C/c1ccc2c(c1)OCO2"
  Potency: "0.233 µM (active)"
- COMPOUND: "COc1ccc(C2CC(C)(c3ccc(OC)cc3)Nc3ccccc3N2)cc1 (centres undefined)"
  Potency: "7.36 µM (active)"

Return the recorded Potency value; entry: Cc1ccc(/C=C(\C#N)C(=O)Nc2cccc(Cl)c2)o1
1.47 µM (active)

For the compound CC(C)(C)c1ccc(C(=O)Nc2ccccc2Cl)cc1 , report Potency.
0.826 µM (active)

Provide measured Potency value, entry: COc1ccccc1C(=O)OCc1cc(=O)n2c(C)csc2n1
10.4 µM (active)

// fetch Potency given entry O=C(COc1ccccc1Br)Nc1ccc2c(c1)OCCCO2
0.927 µM (active)

Return value of Potency for input CS(=O)(=O)c1cnc2c(-c3ccc(F)cc3)cnn2c1N , no commentary.
1.85 µM (active)

Given the compound COc1cccc(C(=O)Nc2cc3c(cc2Br)OCCCO3)c1 , write its reported Potency.
2.07 µM (active)

Give Potency for CN(C)/C=C(/C(=O)c1ccc(Cl)cc1)S(=O)(=O)c1ccccc1
18.5 µM (active)

For O=C(Nc1cc2c(cc1C(=O)O)OCCCO2)c1ccc(C(F)(F)F)cc1 , write its Potency.
7.36 µM (active)

Name the recorded Potency of the item Cc1nc2ccc(C(=O)Nc3ccccc3Cl)cc2s1 in your answer.
3.69 µM (active)

Please give measured Potency of the following entry: Cc1ccc(C(=O)/C=C/c2ccc3c(c2)OCCO3)c(O)c1
18.5 µM (active)

Please report Potency for the following compound: CCOc1ccc(N=C(/C(C(=O)C(=O)N2CCOCC2)=C(\O)c2ccccc2)c2ccccc2)cc1
3.69 µM (active)

Give the reported Potency for this compound. O=C(c1ccc2ccccc2n1)N1CCN(c2ccccc2Cl)CC1
16.5 µM (active)

Give the reported value of Potency for this record: O=C(c1cc(-c2ccc(Cl)cc2)on1)N1CCCCCC1
1.47 µM (active)

Return the recorded Potency value; entry: O=C(O)c1cccc(N/N=C/C2=C(Cl)c3cc(Cl)ccc3SC2)c1
0.261 µM (active)

Supply recorded Potency for C/C(=N\NC(=O)c1ccoc1C)c1ccccc1 here.
1.85 µM (active)

Hello, please tell me recorded Potency for this one: O=C(/C=C/c1ccc2c(c1)OCCCO2)c1ccccc1O
2.07 µM (active)

Retrieve Potency measured for Cc1ccc(N2C(=O)c3ccccc3NC2(C(=O)O)c2ccccc2)cc1Cl (centres undefined) and print it.
2.93 µM (active)

Return reported Potency. Input compound: O=C1/C(=C\Nc2ccc(Cl)cc2)CCN1c1ncccn1
1.31 µM (active)

Input Cc1ccc(S(=O)(=O)/N=C(/NNC(=O)c2cccc(Cl)c2)c2ccccc2)cc1 , output reported Potency.
1.85 µM (active)

Report Potency for Cc1ccccc1Nc1nc(N)nc(CSc2ccc(F)cc2)n1
1.31 µM (active)

Note down Potency recorded for N/C(CS(=O)(=O)c1ccccn1)=N\OC(=O)c1ccccc1Cl
4.65 µM (active)

Report Potency for Cc1nc2ccccc2c(=O)n1/N=C/c1ccccc1Cl
6.56 µM (active)

Look up and state reported Potency for CCOc1ccc(-c2nc(-c3ccccc3C)no2)cc1
0.826 µM (active)
